- experiment: melting temperature; fluorescence melt of hairpins on a sequencing array, two-state fit, raised by 9.35 °C to match UV melts
- particulars: sodium 0.088 M
Quick rule for you: Tm under 40 °C gets fulfilled, anything else gets not fulfilled.

GATCGGAGGGCCGATC ((((((....))))))    not fulfilled
GTTGATGGAAACATTGAC ((..(((....)))..))    fulfilled
GTCGACGAAAGTCGCGAC ((((((....)))..)))    not fulfilled
GATCAATTCATTGATC ((((((....))))))    not fulfilled
TAAACGAAAGTTTA (((((....)))))    not fulfilled
GACACGGGAAACCACGTC (((..((....))..)))    fulfilled
GTTAATGGAAACATTAGC (.(((((....))))).)    fulfilled
CGACCGGAAACGGACTCG ((((((....)))..)))    fulfilled
GATCCAAGGATGGATC ((((((....))))))    not fulfilled
GAATCCGGAAACGGATTC (((((((....)))))))    not fulfilled

## Input # strict comparison: is reported Tm < 40 °C? input = GTAACCGAAAGGTAATAC ((((((....)))..)))
## Output fulfilled

## Input Please do the same for GGACCGCGAAAGCGATCC (((.(((....))).))) as well.
## Output not fulfilled

## Input Next sequence up: GGACTCGAAAGAGACTCC ((((((....)))..)))
## Output fulfilled

---

- experiment: folding enthalpy; higher = less favourable; fluorescence melt of hairpins on a sequencing array, two-state fit
- particulars: sodium 0.088 M
If the reported folding enthalpy equals or exceeds -30 kcal/mol, assign Y. If not, assign N.

GCTTTCGAAAGAAATAGC ((((((....)))..)))    Y
GCTCTGCGAAAGCGGGGC ((.(.((....)).).))    Y
GAACGACGAAAGTCTTC (((.(((....))))))    Y

## Input Item GTCTCTGAAAAGAGAC ((((((....)))))) with folding enthalpy of -30 kcal/mol or above?
## Output N

## Input Moving on to GAGTGCGAAAGCAGGCTC ((((((....)))..)))
## Output Y

## Input Ok, now GCGAACGAAAGTTTCCGC ((((((....)))..)))
## Output Y

---

- experiment: folding enthalpy; higher = less favourable; fluorescence melt of hairpins on a sequencing array, two-state fit
- particulars: sodium 0.088 M
observation-type: folding enthalpy (kcal/mol)
Give bare numbers, in kcal/mol.

# annotated cases, reported folding enthalpy shown
GGTATCGAAAGATACC ((((((....))))))    -43.2
GTTTCCGGAAACGGAAAC (((((((....)))))))    -46.4

Let us examine a further case.
## Input # lookup: folding enthalpy of GGTAGCGAAAGCTGACC ((((((....))).)))
## Output -17.2

---

Would you kindly list folding enthalpy for each of these sequences?
- experiment: folding enthalpy; higher = less favourable; fluorescence melt of hairpins on a sequencing array, two-state fit
- particulars: sodium 0.088 M
Give bare numbers, in kcal/mol.

Would you mind listing folding enthalpy for each of the following sequences?
1. GGAGCTGCGAAAGCATCC (((..(((....))))))
2. GATCGGAGTCCCGATC ((((((....))))))
3. GAAGAGGGAAACTTCTTC (((((.(....).)))))
4. GTAGCAGGAAACCGCTAC (((((.(....).)))))

## Output
[-9.48, -33.8, -30.1, -32.4]

---

- experiment: melting temperature; fluorescence melt of hairpins on a sequencing array, two-state fit, raised by 9.35 °C to match UV melts
- particulars: sodium 0.088 M
Mark each entry true (1) if its Tm sits below 50 °C, and false (0) for all others.

GGAAACGGAAACGTTCCC ((.((((....)))).))    true (1)
GAGCGACGAAAGTCCTC (((.(((....))))))    true (1)
GCAGCGCGAAAGCACCGC ((.(.((....)).).))    true (1)
GGACTTGGAAACGAGTTC (.(((.(....).))).)    true (1)
GTGGGGGGAAACCCCTGC (..((((....))))..)    true (1)

As a next step, examine the sequence that follows.
## Input Given GAGGGCGGAAACGCCCCC (.(((((....))))).) , is recorded Tm strictly lower than 50 °C?
## Output true (1)

---

- experiment: folding enthalpy; higher = less favourable; fluorescence melt of hairpins on a sequencing array, two-state fit
- particulars: sodium 0.088 M
Give folding enthalpy for every item shown.
Answers are plain numbers, in kcal/mol.

Quick request: folding enthalpy for each listed item, please.
1. GACACCGGAAACGATGTC ((((.((....)).))))
2. GGGGCGTCGAAAGACCCC (((..(((....))))))
3. GCGGTCACCCGC ((((....))))
4. GTCTTCGAAAGAAGAGAC ((((((....)))..)))
5. GTTTCCGCGAAAGCGAAC (((..(((....))))))
6. GAGACAGGAAACTGTTTC ((.((((....)))).))

## Output
[-29.6, -16.9, -24.6, -16.7, -9.18, -29.1]

Quick request: folding enthalpy for each listed item, please.
1. GGTGCCGAAAGGCACACC ((((((....)))..)))
2. GATCTCTATCGAGATC ((((((....))))))
3. GATCCCCAAAGGGATC ((((((....))))))
4. GTGCGTGGAAACATGCGC (.((.((....)).)).)
5. GATCGGCCCACCGATC ((((((....))))))
6. GATCACGTGGGTGATC ((((((....))))))
7. GATGGGGGAAACCCTGTC ((..(((....)))..))
8. GTCTTGGGAAACTGAGAC ((((..(....)..))))

## Output
1: -6.62; 2: -39.4; 3: -33.5; 4: -29.6; 5: -41.5; 6: -39.5; 7: -22.5; 8: -23.8

---

- experiment: folding enthalpy; higher = less favourable; fluorescence melt of hairpins on a sequencing array, two-state fit
- particulars: sodium 0.088 M
Recorded folding enthalpy split into classes low bracket (below -100 kJ/mol), middle bracket (-100 kJ/mol to below -70 kJ/mol), high bracket (-70 kJ/mol or more)

Below are worked cases with known answers.
GATGGAGCGAAAGCTATC (((..(((....))))))    high bracket
GCGAGAGGAAACTCTTGC ((.((((....)))).))    low bracket
GACACTGAAAAGTGTC ((((((....))))))    low bracket
GGAAACGAAAGTTTCTCC ((((((....)))..)))    high bracket

## Input Which class holds GCACTTCCGAAAGGATGC (((..(((....)))))) ?
## Output middle bracket

## Input How about this sequence: GCGTAGGCGAAAGCCCGC (((..(((....))))))
## Output middle bracket

## Input Now consider GGGGTTCGAAAGAACCC (((.(((....)))))) .
## Output middle bracket

---

- experiment: melting temperature; fluorescence melt of hairpins on a sequencing array, two-state fit, raised by 9.35 °C to match UV melts
- particulars: sodium 0.088 M
YES means recorded Tm is 50 °C or above; NO means it is below 50 °C.

GGGTCTGAAAAGACCC ((((((....))))))    YES
GCGTTGATACGC ((((....))))    YES
GCCGAAGAAATTCGGC ((((((....))))))    YES
GCTGCCGAAAGGCCTAGC ((((((....)))..)))    NO
GGTTGGGGAAACCTGACC (((..((....))..)))    NO
GCGACGCGAAAGCGAAGC ((..(((....)))..))    YES

## Input Is it the case that GATCACGTGAGTGATC ((((((....)))))) has Tm reaching or exceeding 50 °C?
## Output YES

## Input Proceed to GTCAACCCGAAAGGGGAC (((..(((....))))))
## Output NO

## Input Quick one: GACAGCGAAAGCTTCGTC ((((((....)))..)))
## Output NO

## Input Repeat for the following sequence: GCTTAGCCGAAAGGCAGC (((..(((....))))))
## Output NO

## Input Query GCAAGCGGAAACGCTCGC ((.((((....)))).)) next
## Output YES

---

- experiment: melting temperature; fluorescence melt of hairpins on a sequencing array, two-state fit, raised by 9.35 °C to match UV melts
- particulars: sodium 0.088 M
Label not fulfilled if Tm falls below 50 °C; label fulfilled in every other case.

GCACTCCGAAAGGATGC (((.(((....))))))    fulfilled
GACGTCGGAAACGGTGTC (((..((....))..)))    not fulfilled
GAGATAGGAAACTGTCTC ((((.((....)).))))    not fulfilled
GTGCCGCCGAAAGGCCAC (((..(((....))))))    fulfilled
GCACTCGGAAACGAACGC ((..(((....)))..))    not fulfilled
CGCTCGGAAACGATGCG ((((((....))).)))    fulfilled
GATCCTCATAGGATC ((((((...))))))    fulfilled
GGTAAGGGAAACCTTATC (.(((((....))))).)    not fulfilled

## Input Decide: is the reported value of Tm for GCCGAGCGAAAGCTTAGC ((..(((....)))..)) equal to or greater than 50 °C?
## Output not fulfilled

## Input # iterate: GCGTATTACGC ((((...))))
## Output fulfilled

## Input Also, GAGGGCACGAAAGTGCTC (((..(((....)))))) please.
## Output not fulfilled

## Input Further, for GCCACGCGAAAGCGAAGC ((..(((....)))..)) ?
## Output not fulfilled

## Input Another sequence to check: GCTCTGGGAAACCAGGGC ((.((((....)))).))
## Output fulfilled

## Input Please do the same for GGCCTAGGAAACTAGACC ((.((((....)))).)) as well.
## Output not fulfilled

## Input What do you have for GGTGCAGGAAACTGTACC (((.(((....))).))) ?
## Output fulfilled

## Input Item: CGGATCGGAAACGAGCCG (((.(((....))).)))
## Output fulfilled

## Input Param item: GGTGTCGAAAGACGACC ((((((....))).)))
## Output fulfilled

## Input Request: GATCGAAATTTCGATC ((((((....))))))
## Output fulfilled

## Input Another: GCACCGCGAAAGCTGGGC ((.(.((....)).).))
## Output fulfilled

## Input How about GCGGTGGACCGC ((((....)))) ?
## Output fulfilled

## Input What about GATCCTTACAAGGATC ((((((....)))))) ?
## Output fulfilled

## Input And for GGTCGGCGAAAGCCACC (((.(((....)))))) ?
## Output fulfilled

## Input What do you get for GTACATGGAAACGTGTAC (((((.(....).))))) ?
## Output not fulfilled

## Input # repeat for GATCGGAAACGATC (((((....)))))
## Output fulfilled

## Input Next up: GAGGCTGGAAACAGTCTC (((.(((....))).)))
## Output fulfilled
